target.or.test.system: SARS-CoV-2 spike protein receptor binding domain (RBD), wild type (SARS-CoV-2, UniProt P0DTC2 319-539)
test.protocol: ELISA, RBD protein coated on plate, antibody titrated
measurement.kind: EC50

binder	test.value
C528 (antibody, V domains shown) VH: EVQLVESGGGLVQPGGSLRLSCAASGFTFRNYDMHWVRQVAGKGLEWVSAIGTSGDTYYPDSVKGRFTISRENAKNSVYLQMNNLRAGDTAVYFCVRDREISGWTGWYFDLWGRGTLVTVSS VL: DIQMTQSPSSLSASVGDRVTITCRASQTIHNYLNWYQQIPGKAPRLLIYATNTLQSGVPSRFSGSGSGTDFTLTITGLQPEDFATYYCQQSYSTPPITFGQGTRLEIK	5.66 ng/mL

Looking for the measured EC50 of C524 (antibody, V domains shown) VH: EVQLVESGGDLIQPGGSLRLSCAASGFSVSNSYMSWVRQAPGKGLEWVSIIYSGGSTYYADSVKGRFTISRDNSKNTLYLQMNSLRAEDTAVYFCAKTPRGDYDSSGTSAYWGQGTLVTVSS VL: QLVLTQSPSASASLGASVNLTCTLSSGHSSYAIAWHQQQPEKGPRFLMKLSSDGSHNKGDGIPDRFSGSSSGAERFLTISSLQSEDEADYYCQTWGIGSDWVFGGGTKLTVL , can you help? 5 ng/mL
